Test system: Plasmodium berghei
method description: Luciferase/luciferin-expressing antifolate-resistant parasites were used to infect a culture of HepG2 cells that were pre-incubated with compounds. Infected hepatocytes emit light due to the luciferase reaction. Assay results are presented as the percent inhibition of light emission compared to control. […]
Format: functional
test context: sporozoite, HEPG2TOX_HILL_SLOPE 2.41, HEPG2TOX_R_SQUARED 0.894, PBLUC_HILL_SLOPE 2.42, PBLUC_R_SQUARED 0.407, read-out: LUCIFERASE INFECTION ASSAY - IC50
pIC50: −log10 of the molar value.
quantity name: pIC50

compound=O=S(=O)(c1ccc(Cl)s1)N1CCN(c2ncnc3ccccc23)CC1 quantity_name=pIC50 numeric_readout=5.30

====

System: Plasmodium berghei
method description: Luciferase/luciferin-expressing antifolate-resistant parasites were used to infect a culture of HepG2 cells that were pre-incubated with compounds. Infected hepatocytes emit light due to the luciferase reaction. Assay results are presented as the percent inhibition of light emission compared to control. […]
Type: functional
test context: sporozoite, PBLUC_HILL_SLOPE 4.01, PBLUC_R_SQUARED 0.225, read-out: LUCIFERASE INFECTION ASSAY - IC50
quantity name: IC50 (µM)

compound=c1ccc(-c2cc(NCCCn3ccnc3)nc3ccccc23)cc1 target="Plasmodium berghei" units_text=µM numeric_readout=4.96

====

Test system: Plasmodium berghei
method description: Luciferase/luciferin-expressing antifolate-resistant parasites were used to infect a culture of HepG2 cells that were pre-incubated with compounds. Infected hepatocytes emit light due to the luciferase reaction. Assay results are presented as the percent inhibition of light emission compared to control. […]
Format: functional
test context: sporozoite, PBLUC_HILL_SLOPE 17.4, PBLUC_R_SQUARED 0.11, read-out: LUCIFERASE INFECTION ASSAY - IC50
quantity name: IC50

compound=NNc1cc(C(F)(F)F)nc(C(F)(F)F)c1 quantity_name=IC50 result="11.5 µM"

====

Test system: Plasmodium berghei
method description: Luciferase/luciferin-expressing antifolate-resistant parasites were used to infect a culture of HepG2 cells that were pre-incubated with compounds. Infected hepatocytes emit light due to the luciferase reaction. Assay results are presented as the percent inhibition of light emission compared to control. […]
Assay type: functional
test context: sporozoite, HEPG2TOX_HILL_SLOPE 1.41, HEPG2TOX_R_SQUARED 0.742, PBLUC_HILL_SLOPE 1.25, PBLUC_R_SQUARED 0.657, read-out: LUCIFERASE INFECTION ASSAY - IC50
pIC50: −log10 of the molar value.
quantity name: pIC50

compound=Cc1ccc(N/N=C/c2c3ccccc3cc3ccccc23)cc1Cl numeric_readout=6.00

====

Test system: Plasmodium berghei
method description: Luciferase/luciferin-expressing antifolate-resistant parasites were used to infect a culture of HepG2 cells that were pre-incubated with compounds. Infected hepatocytes emit light due to the luciferase reaction. Assay results are presented as the percent inhibition of light emission compared to control. […]
Format: functional
test context: sporozoite, HEPG2TOX_HILL_SLOPE 0.129, HEPG2TOX_R_SQUARED 0.115, read-out: LUCIFERASE INFECTION ASSAY - IC50
pIC50: −log10 of the molar value.
quantity name: pIC50

compound=CC1CCN(Cc2csc(NC(=O)c3ccc4ncsc4c3)n2)CC1 quantity_name=pIC50 result="< 5.00"

Origin of the recorded values: ChEMBL document CHEMBL4483862
